# Test system: HOP-62 NSCLC
# test.description: NCI tumour cell line growth inhibition, 48 h
readout.label: TGI

INSERT INTO results (compound, readout_label, recorded_measurement) VALUES
  ('COc1ccc(CC(C)C(C)Cc2ccc(OC)c(OC)c2)cc1OC (stereo not given)', 'TGI', '> 1400 µM'),
  ('CCOC(=O)NC(=S)NN(C)C1=NCC(C)(C)S1', 'TGI', '> 100 µM'),
  ('C=C1CC2(OC1=O)C(=O)N(CCCN1C(=O)C3(CC(=C)C(=O)O3)c3ccccc31)c1ccccc12 (stereo not given)', 'TGI', '21.8 µM');

Please look at the items below and tell me TGI for each one, in order.
1. Cc1cc2[nH]c3[nH]c(=O)[nH]c(=O)c3c2cc1C
2. O=c1cc(N=P(c2ccccc2)(c2ccccc2)c2ccccc2)n(-c2ccccc2)c(=O)n1-c1ccccc1

Result:
> 100 µM
32.4 µM
